Test system: PHBPU Pharbitis purpurea
Assay: Pre-emergence herbicidal action against harmful plants
Assay type: in vivo
Details: 80 g/ha, scored visually after 3 weeks vs untreated controls
MEASUREMENT KIND: Pre-emergence action at 80 g/ha against PHBPU in % (%)
One number for each entry, in %.

Solved entries:
CCn1nnnc1NC(=O)c1c(F)cc(C(F)(F)F)c(C(=O)NCC2CC2)c1C [Example 2-384]: 80
Cc1c(C(=O)Nc2nnnn2C)c(F)cc(C(F)(F)F)c1C(=O)NCC(F)F [Example 1-385]: 80
CCNC(=O)c1c(C(F)(F)F)cc(F)c(C(=O)Nc2nnnn2CC)c1C [Example 2-93]: 90

Read the next record carefully.
Req: Look at this compound and give its reported Pre-emergence action at 80 g/ha against PHBPU in %. CCn1nnnc1NC(=O)c1cc(Cl)c(C(F)(F)F)c(C(=O)NC2CC2)c1C [Example 2-85]
Resp: 90

---

Tested on: AMARE Amaranthus retroflexus
Assay: Post-emergence herbicidal action against harmful plants
Assay type: in vivo
Settings: 20 g/ha, one-leaf stage, assessed visually after about 3 weeks vs untreated controls
MEASUREMENT KIND: Post-emergence action at 20 g/ha against AMARE in % (%)
Give bare numbers, in %.

Solved entries:
CCN(C)C(=O)c1c(C(F)(F)F)cc(F)c(C(=O)Nc2nnnn2CC)c1C: 90
Cc1c(C(=O)Nc2nnnn2C)cc(Cl)c(C(F)(F)F)c1C(=O)NC1CC1: 80
CNC(=O)c1c(C(F)(F)F)cc(F)c(C(=O)Nc2nnnn2C)c1Cl: 90
Cc1c(C(=O)Nc2nnnn2C)c(F)cc(C(F)(F)F)c1C(=O)NCC(F)F: 90
CCn1nnnc1NC(=O)c1c(F)cc(C(F)(F)F)c(C(=O)NCC2CC2)c1C: 90
CCNC(=O)c1c(C(F)(F)F)cc(F)c(C(=O)Nc2nnnn2C)c1C: 90

Return reported Post-emergence action at 20 g/ha against AMARE in % values for all items listed beneath this line.
1. CCn1nnnc1NC(=O)c1c(F)cc(C(F)(F)F)c(C(=O)NCC(F)F)c1C
2. CCn1nnnc1NC(=O)c1cc(Cl)c(C(F)(F)F)c(C(=O)NC2CC2)c1C
3. CCNC(=O)c1c(C(F)(F)F)cc(OC)c(C(=O)Nc2nnnn2C)c1Cl

Resp:
90
90
80

---

Tested on: MATIN Matricaria inodora
Assay: Pre-emergence herbicidal action against harmful plants
Type: in vivo
Conditions: 20 g/ha, scored visually after 3 weeks vs untreated controls
Please respond with reported Pre-emergence action at 20 g/ha against MATIN in % for every item in the list.
One number for each entry, in %.

CCN(C)C(=O)c1c(C(F)(F)F)cc(F)c(C(=O)Nc2nnnn2C)c1C: 80
CCn1nnnc1NC(=O)c1cc(Cl)c(C(F)(F)F)c(C(=O)NC2CC2)c1C: 90
Cc1c(C(=O)Nc2nnnn2C)c(F)cc(C(F)(F)F)c1C(=O)N(C)C1CC1: 90
Cc1c(C(=O)Nc2nnnn2C)cc(Cl)c(C(F)(F)F)c1C(=O)NC1CC1: 80
CCn1nnnc1NC(=O)c1c(F)cc(C(F)(F)F)c(C(=O)N(C)C2CC2)c1C: 90

Return reported Pre-emergence action at 20 g/ha against MATIN in % values for all items listed beneath this line.
1. CCn1nnnc1NC(=O)c1c(F)cc(C(F)(F)F)c(C(=O)NC)c1C
2. CCN(C)C(=O)c1c(C(F)(F)F)cc(F)c(C(=O)Nc2nnnn2CC)c1C
3. CCNC(=O)c1c(C(F)(F)F)cc(F)c(C(=O)Nc2nnnn2CC)c1C

Resp:
1. 90
2. 80
3. 80

Return reported Pre-emergence action at 20 g/ha against MATIN in % values for all items listed beneath this line.
1. CNC(=O)c1c(C(F)(F)F)cc(F)c(C(=O)Nc2nnnn2C)c1C
2. CCn1nnnc1NC(=O)c1c(F)cc(C(F)(F)F)c(C(=O)NCC(F)F)c1C

Resp:
[90, 80]
